assay: Inhibition of Dengue virus NS5MTase assessed as methylation of 7MeGpppAC5
Result Type: pIC50
Please report pIC50 as the negative decimal logarithm of the molar concentration, giving only the number.

IN: Identify the reported pIC50 for the following entry. `Cc1ccc(C23CC4CC(CC(NC(=O)N[C@@H](Cc5ccccc5)C(=O)O)(C4)C2)C3)cc1`
OUT: 4.22
